assay: NCI Yeast Anticancer Drug Screen. Data for the bub3 strain (AID 167); conditions: S. cerevisiae bub3 mutant strain, at 5.0 µM (retest, dose inferred, filed as 0.5)
About 79,000 compounds went through this panel and 15% of them were active in at least one assay; those are over-represented in the sample as a whole. The source made the active and inactive calls. Rule as the data show it: active = growth inhibition above about 70%; inactive = the rest.
Allowed answers: T for active, F for inactive

CC12CCC(CC(=O)/C1=C(/Br)I)C2(C)C (stereo not drawn)    F
N#C/C(=C\NC(=S)Nc1ccc(S(N)(=O)=O)cc1)C(=O)c1ccc2ccccc2c1    T
CCC[CH2][Sn]([CH2]CCC)([CH2]CCC)/[C](=C/[Si](C)(C)c1ccccc1)c1ccc2c(c1)OCO2    F

Now let's try a different one.
Prompt line: Entry [N-]=[N+]=NC1(c2ccccc2)C(=O)Nc2ccccc2C1=O (stereo not drawn) : call = ?
Response line: F
